All figures here come from ChEMBL document CHEMBL5120833.

Biological target: Acetylcholinesterase (Homo sapiens, UniProt P22303)
Sequence (P22303 whole entry): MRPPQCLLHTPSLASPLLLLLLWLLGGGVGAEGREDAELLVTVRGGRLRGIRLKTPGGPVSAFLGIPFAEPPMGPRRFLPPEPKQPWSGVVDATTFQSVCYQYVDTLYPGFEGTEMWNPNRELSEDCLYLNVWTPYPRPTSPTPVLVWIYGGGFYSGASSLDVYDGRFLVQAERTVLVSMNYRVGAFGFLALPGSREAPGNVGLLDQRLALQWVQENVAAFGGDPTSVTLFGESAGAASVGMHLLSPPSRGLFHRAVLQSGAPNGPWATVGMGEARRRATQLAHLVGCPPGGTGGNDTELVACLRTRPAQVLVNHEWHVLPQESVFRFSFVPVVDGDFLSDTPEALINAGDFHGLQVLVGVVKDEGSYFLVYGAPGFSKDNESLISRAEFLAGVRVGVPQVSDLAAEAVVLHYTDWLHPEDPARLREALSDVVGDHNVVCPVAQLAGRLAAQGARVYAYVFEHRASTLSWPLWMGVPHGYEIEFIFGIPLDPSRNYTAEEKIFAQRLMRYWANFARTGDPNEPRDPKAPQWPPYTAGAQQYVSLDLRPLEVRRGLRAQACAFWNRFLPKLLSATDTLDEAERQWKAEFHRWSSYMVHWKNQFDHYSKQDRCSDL
Attribute measured: pIC50
# reply with the number alone; pIC50 is -log10 of concentration in mol/L

Some molecules with recorded pIC50:
O=C(COc1ccccc1C(F)(F)F)NCCN1CCN(Cc2ccccc2)CC1: 6.87
O=C(COc1ccc(Cc2ccccc2)cc1)NCCN1CCN(Cc2ccccc2)CC1: 6.00
O=C(COc1ccc(Cl)cc1)NCC1CCN(Cc2ccccc2)CC1: 5.77

Problem: // fetch Acetylcholinesterase (Homo sapiens, UniProt P22303) pIC50 for O=C(COc1ccc(Cl)cc1)NCCN1CCN(Cc2ccccc2)CC1
Solution: 6.72

Problem: Hello, I am looking for reported pIC50 with Acetylcholinesterase (Homo sapiens, UniProt P22303) for Cc1cc(Br)cc(C)c1OCC(=O)NCCN1CCN(Cc2ccccc2)CC1 . Could you help?
Solution: 7.05

Problem: API: value(readout= pIC50, system= Acetylcholinesterase (Homo sapiens, UniProt P22303), query= O=C(COc1ccc([N+](=O)[O-])cc1)NCCN1CCN(Cc2ccccc2)CC1 )
Solution: 7.38

Problem: # value lookup — system Acetylcholinesterase (Homo sapiens, UniProt P22303), readout pIC50, item O=C(COc1ccc(-c2ccccc2)cc1)NCC1CCN(Cc2ccccc2)CC1
Solution: 5.77

Problem: Find pIC50 (Acetylcholinesterase (Homo sapiens, UniProt P22303)) for the entry Cc1cc(Br)cc(C)c1OCC(=O)NCC1CCN(Cc2ccccc2)CC1
Solution: 6.23

Problem: Record lookup: for Acetylcholinesterase (Homo sapiens, UniProt P22303), what pIC50 belongs to O=C(COc1ccc([N+](=O)[O-])cc1)NCC1CCN(Cc2ccccc2)CC1 ?
Solution: 6.29

Problem: What value of pIC50 on Acetylcholinesterase (Homo sapiens, UniProt P22303) does O=C(COc1ccccc1C(F)(F)F)NCC1CCN(Cc2ccccc2)CC1 have?
Solution: 6.12

====

Test: Cytotoxicity against human HepG2 cells assessed as inhibition of cell viability incubated for 24 hrs by MTT assay
Assay type: toxicity, cell-based
Reported values of IC50 at 24 h for individual entries

Here are 3 molecules together with their reported answers.
O=C(COc1cc(F)ccc1[N+](=O)[O-])NCCN1CCN(Cc2ccccc2)CC1: > 100 µM
O=C(COc1ccc(Cl)cc1[N+](=O)[O-])NCCN1CCN(Cc2ccccc2)CC1: > 100 µM
O=C(COc1ccc(CCc2ccccc2)cc1)NCCN1CCN(Cc2ccccc2)CC1: 41.6 µM

We next turn to a different molecule, shown below.
Problem: Could you share which IC50 at 24 h value was measured for O=C(COc1ccc(Cl)cc1)NCC1CCN(Cc2ccccc2)CC1 ?
Solution: > 100 µM
